- measurementTarget: recombinant homotrimeric HA, A/Indonesia/5/05 H5N1 (Influenza A virus A/Indonesia/5/05 (H5N1))
- assayRemarks: trimeric HA microarray, transfection set 5
- experimentalParameters: remark: other sources report otherwise
quantityName: Trimeric HA Binding RLU (RLU)
Note: unit RLU is implicit; provide only the numeric part.

binder	resultUnits	Trimeric HA Binding RLU
TCN-540 (5060_F05) (antibody, V domains shown) VH: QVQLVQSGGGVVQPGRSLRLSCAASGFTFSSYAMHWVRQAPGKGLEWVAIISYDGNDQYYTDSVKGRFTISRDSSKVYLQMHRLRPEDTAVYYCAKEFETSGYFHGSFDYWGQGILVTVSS VL: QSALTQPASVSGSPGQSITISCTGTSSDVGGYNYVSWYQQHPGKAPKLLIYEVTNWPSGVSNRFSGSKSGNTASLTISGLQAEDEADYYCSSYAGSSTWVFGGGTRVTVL	RLU	2570
TCN-550 (5096_F06) (antibody, V domains shown) VH: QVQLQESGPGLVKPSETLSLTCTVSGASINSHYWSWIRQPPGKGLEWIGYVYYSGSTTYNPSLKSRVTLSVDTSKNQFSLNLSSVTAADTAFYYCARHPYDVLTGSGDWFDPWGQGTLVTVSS VL: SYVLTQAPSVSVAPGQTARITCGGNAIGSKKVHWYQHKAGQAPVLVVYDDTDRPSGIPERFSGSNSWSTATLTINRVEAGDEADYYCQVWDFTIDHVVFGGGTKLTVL	RLU	9000
TCN-552 (5249_I23) (antibody, V domains shown) VH: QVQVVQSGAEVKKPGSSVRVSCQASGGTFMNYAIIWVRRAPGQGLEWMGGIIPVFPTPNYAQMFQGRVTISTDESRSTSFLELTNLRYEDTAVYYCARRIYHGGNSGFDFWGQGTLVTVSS VL: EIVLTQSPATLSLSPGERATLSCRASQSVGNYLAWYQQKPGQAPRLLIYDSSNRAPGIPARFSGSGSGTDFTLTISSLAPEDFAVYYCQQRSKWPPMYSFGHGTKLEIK	RLU	43400
TCN-538 (3206_O17) (antibody, V domains shown) VH: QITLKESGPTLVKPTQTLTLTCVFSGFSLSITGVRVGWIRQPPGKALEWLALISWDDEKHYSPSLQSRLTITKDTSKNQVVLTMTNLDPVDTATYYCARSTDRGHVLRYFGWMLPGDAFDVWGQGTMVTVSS VL: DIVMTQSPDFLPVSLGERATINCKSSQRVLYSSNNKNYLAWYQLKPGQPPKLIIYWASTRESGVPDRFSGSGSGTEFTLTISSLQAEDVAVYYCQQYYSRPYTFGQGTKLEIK	RLU	13700

We next turn to a different binder, shown below.
Given the entry TCN-545 (5082_I15) (antibody, V domains shown) VH: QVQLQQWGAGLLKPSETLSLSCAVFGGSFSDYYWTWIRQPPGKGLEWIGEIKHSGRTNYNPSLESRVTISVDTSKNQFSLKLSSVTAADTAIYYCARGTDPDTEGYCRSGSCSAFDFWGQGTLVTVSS VL: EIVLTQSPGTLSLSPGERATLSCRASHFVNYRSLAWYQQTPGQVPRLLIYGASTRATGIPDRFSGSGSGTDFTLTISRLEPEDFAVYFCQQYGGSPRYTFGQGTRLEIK , report its measured Trimeric HA Binding RLU.
5270
